Assay: Hydrodynamic diameter and colloidal stability of aggregates by dynamic light scattering
Format: physicochemical
Details: 0.3125 μM in PBS from DMSO stock, 37 °C
QUANTITY_KIND: zeta potential (mV)
One number for each entry, in mV.

CC1=C[C@H](OC(=O)CCC(=O)O)CC(C)(C)[C@H]1/C=C/C(C)=C/C=C/C(C)=C/C=C/C=C(C)/C=C/C=C(C)/C=C/C1=C(C)C[C@@H](OC(=O)CCC(=O)O)CC1(C)C [Compound 10, Lutein bissuccinate] = 103.0

Field: next compound
Summary for this compound, COc1ccc2[nH]cc(CCNC(=O)CNC(=O)CCC(=O)O[C@@H]3CC(C)=C(/C=C/C(C)=C/C=C/C(C)=C/C=C/C=C(C)/C=C/C=C(C)/C=C/C4=C(C)C[C@@H](OC(=O)CCC(=O)NCC(=O)NCCc5c[nH]c6ccc(OC)cc56)CC4(C)C)C(C)(C)C3)c2c1 [Compound 14, Zeaxanthin-bismelatonin conjugate] : zeta potential is −0.7
